Molecular target: Caspase-3 (Homo sapiens, UniProt P42574)
Sequence (P42574 29-175 limits assumed): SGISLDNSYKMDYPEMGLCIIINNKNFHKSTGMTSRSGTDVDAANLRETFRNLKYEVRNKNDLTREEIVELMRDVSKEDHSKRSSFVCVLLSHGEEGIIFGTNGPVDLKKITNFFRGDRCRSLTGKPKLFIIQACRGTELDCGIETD
Sequence (P42574 176-277 limits assumed): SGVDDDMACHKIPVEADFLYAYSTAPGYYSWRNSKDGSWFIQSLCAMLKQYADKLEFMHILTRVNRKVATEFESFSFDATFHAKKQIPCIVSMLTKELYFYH
Experiment: Caspase-3 enzyme assay, cleavage of fluorogenic substrate
Type: biochemical
Conditions: second order rate constant of enzyme inactivation; substrate Acetyl-Asp-Glu-val-Asp-amino-4-methylcoumarin
ASSAY_METRIC: Kinact (M⁻¹ s⁻¹)
Kindly answer with a numeric value in M⁻¹ s⁻¹, unit omitted.

Cc1cccc(=O)n1CC(=O)NC(CC(=O)O)C(=O)CF (centres unmarked) [Compound 1A-3]; 51000

API: the following record is the query input.
Provide Kinact value for the following compound: C[C@@H](C(=O)NC(CC(=O)O)C(=O)CF)N1C(=O)c2ccccc2C1=O (some centres unmarked) [Compound 1F-3]
220000
